meta.source: ChEMBL document CHEMBL1909506

Test system: HeLa
ASSAY_NAME: Cytotoxicity against human HeLa cells assessed as growth inhibition at 20 uM after 48 hrs by MTT assay
Format: functional
EXPERIMENTAL_CONTEXT: read-out: GI
Recorded measurements of inhibition of growth at 20 µM, one per entry
QUANTITY_MEASURED: inhibition of growth at 20 µM (%)

- LINE_NOTATION: "O=C(Cn1cnc2scc(-c3ccc4ccccc4c3)c2c1=O)N/N=C/c1ccc(Cl)c([N+](=O)[O-])c1"
  UNIT_TAG: "%"
  NUMERIC_RESULT: 69
- LINE_NOTATION: "O=C(Cn1cnc2scc(-c3ccc(Cl)cc3)c2c1=O)N/N=C/c1ccccc1O"
  UNIT_TAG: "%"
  NUMERIC_RESULT: 43
- LINE_NOTATION: "O=C(Cn1cnc2sc3c(c2c1=O)CCCCC3)N/N=C/c1ccccc1O"
  UNIT_TAG: "%"
  NUMERIC_RESULT: 36
- LINE_NOTATION: "O=C(Cn1cnc2sc3c(c2c1=O)CCCC3)N/N=C/c1ccc(Cl)c([N+](=O)[O-])c1"
  UNIT_TAG: "%"
  NUMERIC_RESULT: 27
- LINE_NOTATION: "N#Cc1ccc(/C=N/NC(=O)Cn2cnc3sc4c(c3c2=O)CCCCC4)cc1"
  UNIT_TAG: "%"
  NUMERIC_RESULT: 11
- LINE_NOTATION: "O=C(Cn1cnc2scc(-c3ccccc3)c2c1=O)N/N=C/c1ccc(Cl)c([N+](=O)[O-])c1"
  UNIT_TAG: "%"
  NUMERIC_RESULT: 64
- LINE_NOTATION: "O=C(Cn1cnc2sc3c(c2c1=O)CCCCC3)N/N=C/c1ccc(Cl)c([N+](=O)[O-])c1"
  UNIT_TAG: "%"
  NUMERIC_RESULT: 96
- LINE_NOTATION: "Cc1cc(-c2csc3ncn(CC(=O)N/N=C/c4ccc(Cl)c(F)c4)c(=O)c23)ccc1Cl"
  UNIT_TAG: "%"
  NUMERIC_RESULT: 52
- LINE_NOTATION: "O=C(Cn1cnc2sc3c(c2c1=O)CCC3)N/N=C/c1ccc(O)cc1"
  UNIT_TAG: "%"
  NUMERIC_RESULT: 29
- LINE_NOTATION: "O=C(Cn1cnc2scc(-c3ccc(Cl)cc3)c2c1=O)N/N=C/c1ccc(Cl)c([N+](=O)[O-])c1"
  UNIT_TAG: "%"
  NUMERIC_RESULT: 74
- LINE_NOTATION: "Cc1csc2ncn(CC(=O)N/N=C/c3ccc(Cl)c([N+](=O)[O-])c3)c(=O)c12"
  UNIT_TAG: "%"
  NUMERIC_RESULT: 18
- LINE_NOTATION: "Cc1cc(-c2csc3ncn(CC(=O)N/N=C/c4ccccc4O)c(=O)c23)ccc1Cl"
  UNIT_TAG: "%"
  NUMERIC_RESULT: 33
- LINE_NOTATION: "O=C(Cn1cnc2sc3c(c2c1=O)CCC3)N/N=C/c1ccccc1O"
  UNIT_TAG: "%"
  NUMERIC_RESULT: 23
- LINE_NOTATION: "O=C(Cn1cnc2sc3c(c2c1=O)CCC3)N/N=C/c1ccc(Cl)c([N+](=O)[O-])c1"
  UNIT_TAG: "%"
  NUMERIC_RESULT: 34
- LINE_NOTATION: "O=C(Cn1cnc2scc(-c3ccccc3)c2c1=O)N/N=C/c1ccccc1O"
  UNIT_TAG: "%"
  NUMERIC_RESULT: 31
- LINE_NOTATION: "O=C(Cn1cnc2sc3c(c2c1=O)CCC3)N/N=C/c1ccc(Cl)c(F)c1"
  UNIT_TAG: "%"
  NUMERIC_RESULT: 54
- LINE_NOTATION: "O=C(Cn1cnc2sc3c(c2c1=O)CCCCC3)N/N=C/c1ccc(Cl)c(F)c1"
  UNIT_TAG: "%"
  NUMERIC_RESULT: 50
- LINE_NOTATION: "O=C(Cn1cnc2sc3c(c2c1=O)CCCC3)N/N=C/c1ccccc1O"
  UNIT_TAG: "%"
  NUMERIC_RESULT: 34
- LINE_NOTATION: "O=C(Cn1cnc2scc(-c3ccc4ccccc4c3)c2c1=O)N/N=C/c1ccccc1O"
  UNIT_TAG: "%"
  NUMERIC_RESULT: 22
- LINE_NOTATION: "O=C(Cn1cnc2sc3c(c2c1=O)CCCC3)N/N=C/c1ccc(Cl)c(F)c1"
  UNIT_TAG: "%"
  NUMERIC_RESULT: 41
- LINE_NOTATION: "O=C(Cn1cnc2sc3c(c2c1=O)CCCC3)N/N=C/c1ccc(C(F)(F)F)cc1"
  UNIT_TAG: "%"
  NUMERIC_RESULT: 34
